# Experimental Target: BIRC2-BIR3 domain (Homo sapiens, UniProt Q13490)
# Sequence (Q13490 260-352): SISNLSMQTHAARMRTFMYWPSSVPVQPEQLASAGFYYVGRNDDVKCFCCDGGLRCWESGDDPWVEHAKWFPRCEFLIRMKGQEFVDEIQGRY
# Run Description: Differential scanning fluorimetry (DSF)
# Measurement Parameters: technical replicate, second column
Flag rule - ΔTm [°C] (Supplementary Table S1) less than 9 °C flags class 1; the remaining entries get class 0.

- Molecule: "CN[C@@H](C)C(=O)N[C@H]1CN(C(=O)CC(C)C)CC[C@H]2CC[C@@H](C(=O)NC(c3ccccc3)c3ccccc3)N2C1=O [AT406]"
  Category: "class 0"
- Molecule: "CN[C@@H](C)C(=O)N[C@H]1CCCC[C@H]2CC[C@@H](C(=O)N[C@@H](c3ccccc3)c3cn(CCCCc4ccc(CCCCn5cc([C@@H](NC(=O)[C@@H]6CC[C@@H]7CCCC[C@H](NC(=O)[C@H](C)NC)C(=O)N76)c6ccccc6)nn5)cc4)nn3)N2C1=O [SM-164]"
  Category: "class 0"
- Molecule: "Oc1c(CN2CCCC2)cc(COCc2ccccc2)c2cccnc12 [UC-112]"
  Category: "class 1"
- Molecule: "CN[C@@H](C)C(=O)N[C@H](C(=O)N1CCC[C@H]1C(=O)Nc1sc(-c2ncco2)nc1-c1ccccc1)C1CCCCC1 [CUDC-427]"
  Category: "class 0"

----------
# Experimental Target: BIRC7 BIR (Homo sapiens, UniProt Q96CA5)
# Sequence (Q96CA5 70-176): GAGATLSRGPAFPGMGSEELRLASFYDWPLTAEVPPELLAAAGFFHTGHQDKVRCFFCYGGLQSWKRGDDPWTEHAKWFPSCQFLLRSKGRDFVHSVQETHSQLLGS
# Run Description: NanoBRET cellular target engagement, single domain BIRC7 BIR
EC50 reference

- Compound Smiles: "CN[C@@H](C)C(=O)N[C@H](C(=O)N1CCC[C@H]1c1nc(C(=O)c2ccc(F)cc2)cs1)C1CCCCC1"
  EC50 / µM: 0.0285
- Compound Smiles: "CN[C@@H](C)C(=O)N[C@H](C(=O)N1CCC[C@H]1C(=O)N[C@H]1c2ccccc2C[C@H]1OCC#CC#CCO[C@@H]1Cc2ccccc2[C@@H]1NC(=O)[C@@H]1CCCN1C(=O)[C@@H](NC(=O)[C@H](C)NC)C1CCCCC1)C1CCCCC1"
  EC50 / µM: 0.0161
- Compound Smiles: "CN[C@@H](C)C(=O)N[C@H](C(=O)N1CCC[C@H]1C(=O)N[C@@H]1CCCc2ccccc21)C1CCCCC1"
  EC50 / µM: 0.017
- Compound Smiles: "CN[C@@H](C)C(=O)N[C@H]1CN(C(=O)CC(C)C)CC[C@H]2CC[C@@H](C(=O)NC(c3ccccc3)c3ccccc3)N2C1=O"
  EC50 / µM: 0.018
- Compound Smiles: "CN[C@@H](C)C(=O)N[C@H](C(=O)N1CCC[C@H]1C(=O)Nc1snnc1-c1ccccc1)C1CCCCC1"
  EC50 / µM: 0.0284

----------
# Experimental Target: BIRC8 BIR (Homo sapiens)
# Sequence (Q96P09 1-90): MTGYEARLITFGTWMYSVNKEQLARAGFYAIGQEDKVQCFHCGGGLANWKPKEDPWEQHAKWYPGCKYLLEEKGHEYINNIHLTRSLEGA
# Run Description: NanoBRET cellular target engagement, single domain BIRC8 BIR

- Molecule: "CNC(C)C(=O)NC(C(=O)N1CCCC1c1nc(C(=O)c2cccc(OCCOCCOCCNC(=O)CCc3ccc4n3[B-](F)(F)[N+]3=C(c5ccc[nH]5)C=CC3=C4)c2)cs1)C1CCCCC1 (stereo not shown) [IAP Tracer]"
  Kd: "2760 nM"

----------
# Experimental Target: BIRC2 (Homo sapiens)
# Sequence (Q13490 whole entry): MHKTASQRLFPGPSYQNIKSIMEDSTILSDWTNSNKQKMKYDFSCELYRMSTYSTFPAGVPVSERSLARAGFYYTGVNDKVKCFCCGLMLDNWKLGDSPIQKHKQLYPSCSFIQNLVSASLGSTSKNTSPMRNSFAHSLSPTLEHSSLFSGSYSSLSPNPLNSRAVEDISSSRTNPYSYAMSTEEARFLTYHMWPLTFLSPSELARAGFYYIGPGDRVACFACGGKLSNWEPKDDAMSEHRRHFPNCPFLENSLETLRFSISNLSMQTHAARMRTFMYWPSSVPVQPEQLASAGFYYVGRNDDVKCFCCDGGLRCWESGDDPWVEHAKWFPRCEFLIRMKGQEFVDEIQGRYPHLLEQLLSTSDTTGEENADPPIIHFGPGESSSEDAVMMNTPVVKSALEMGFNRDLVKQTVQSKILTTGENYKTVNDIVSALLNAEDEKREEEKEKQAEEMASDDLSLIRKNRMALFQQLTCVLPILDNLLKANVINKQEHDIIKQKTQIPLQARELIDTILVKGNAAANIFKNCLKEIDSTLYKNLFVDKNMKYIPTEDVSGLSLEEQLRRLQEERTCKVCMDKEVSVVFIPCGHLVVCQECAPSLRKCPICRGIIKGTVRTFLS
# Run Description: NanoBRET cellular target engagement, full-length BIRC2

- Compound Smiles: "CN[C@@H](C)C(=O)N[C@H](C(=O)N1CCC[C@H]1C(=O)N[C@@H]1CCCc2ccccc21)C1CCCCC1"
  Experimental Target: "BIRC2 (Homo sapiens)"
  EC50 [µM]: 0.0046
- Compound Smiles: "CN[C@@H](C)C(=O)N[C@H](C(=O)N1CCC[C@H]1C(=O)Nc1sc(-c2ncco2)nc1-c1ccccc1)C1CCCCC1"
  Experimental Target: "BIRC2 (Homo sapiens)"
  EC50 [µM]: 0.622
- Compound Smiles: "CN[C@@H](C)C(=O)N[C@H](C(=O)N1CCC[C@H]1C(=O)N[C@H]1c2ccccc2C[C@H]1OCC#CC#CCO[C@@H]1Cc2ccccc2[C@@H]1NC(=O)[C@@H]1CCCN1C(=O)[C@@H](NC(=O)[C@H](C)NC)C1CCCCC1)C1CCCCC1"
  Experimental Target: "BIRC2 (Homo sapiens)"
  EC50 [µM]: 0.192

Origin of the recorded values: paper PMC9204419
